- assayed_system: His6 tagged human recombinant FABP4 (Homo sapiens)
- Construct: purchased Cayman Chemicals 10009549
- Sequence (P15090 whole entry): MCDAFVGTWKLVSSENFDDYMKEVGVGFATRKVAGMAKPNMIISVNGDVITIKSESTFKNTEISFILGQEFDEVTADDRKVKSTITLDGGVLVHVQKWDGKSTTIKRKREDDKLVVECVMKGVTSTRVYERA
- assay_comment: FABP4 TR-FRET assay: displacement of fluorescent fatty acid BODIPY FL C12
- details: inhibition of BODIPY FL C12 binding to His6-FABP4; 1.2 μL of 1.085 mM compound in DMSO per well; triplicates, mean percent inhibition
Heads up, the class ranges for inhibition at 1085 µM (stock) are low interval: < 20%; middle interval: ≥ 20% and < 60%; high interval: ≥ 60%

Category lookup for the compound CCCCCCc1ccc2nc(OCC(=O)O)cc(-c3cccc(C#N)c3)c2c1 middle interval

Category lookup for the compound CCCCc1ccc2nc(N(C)C(C(=O)O)C(C)C)cc(-c3cccc(C#N)c3)c2c1 (stereo not shown) middle interval

Category lookup for the compound CCCCCCCCc1ccc2nc(N(C)CC(=O)O)cc(Oc3ccncc3)c2c1 low interval

Category lookup for the compound CN(CC(=O)O)c1cc(-c2ccccc2)c2cc(CCc3cccnc3)ccc2n1 middle interval

Category lookup for the compound CN(CC(=O)O)c1cc(-c2ccccc2)c2cc(CCN3CCOCC3)ccc2n1 low interval

Continuing:
Category lookup for the compound CCCCCc1ccc2nc(OCC(=O)O)cc(-c3ccccc3)c2c1 middle interval

Category lookup for the compound CCCCCc1ccc2nc(OCC(=O)O)cc(-c3cccc(C#N)c3)c2c1 low interval

Category lookup for the compound COc1ccc2nc(N(C)CC(=O)O)cc(-c3ccccc3)c2c1 high interval

Category lookup for the compound CN(c1cc(-c2ccccc2)c2cc(CCc3ccccc3)ccc2n1)c1nnn[nH]1 high interval

Category lookup for the compound CN(CC(=O)O)c1cc(-c2ccccc2)c2cc(CCc3ccc4nccnc4c3)ccc2n1 middle interval

Category lookup for the compound CN(CC(=O)O)c1cc(-c2ccccc2)c2cc(CCc3ncccn3)ccc2n1 low interval
